- Test system: CD2F1 mice, L1210 leukemia ip, survival T/C
- measurement_protocol: NCI In Vivo Anticancer Drug Screen. Data for tumor model L1210 Leukemia (intraperitoneal) in CD2F1 (CDF1) mice
- test_context: endpoint: mean survival time; dose: 100.0 mg/kg/injection; schedule: Q01DX009 (ip); vehicle: other; higher = longer survival
Inconclusive results and toxic doses are left out.
measured_attribute: T/C

CC(C#N)(Nc1ccccc1)c1ccco1 (stereo unspecified) | 90 % of control
CCCCCCCC1SC(=S)NC1=O (stereo unspecified) | 91 % of control

Please look up its T/C: `CNC(=S)Nc1ccc(C(=O)NC(C)C)cc1`
95 % of control

Please look up its T/C: `CCOC(=O)n1cnc2ncnc(SC)c21`
102 % of control

Please look up its T/C: CC1(C)CC2(OC2c2ccccc2)C(C)(O)c2ccccc21 (stereo unspecified)
105 % of control

Please look up its T/C: CC(C)(C)C1C=Nn2c(=O)n(-c3ccccc3)c(=O)n21 (stereo unspecified)
100 % of control

Please look up its T/C: `COc1cccc2c1C(=O)c1c(OC)c(C)cc(OC)c1C2=O`
110 % of control

Please look up its T/C: `Cc1[nH]nc2c1CCCC2`
101 % of control

Please look up its T/C: `O=C(N/N=C/c1ccc([N+](=O)[O-])cc1[N+](=O)[O-])c1ccncc1`
89 % of control

Please look up its T/C: `COc1ccc2nc3cc(Cl)ccc3c(Nc3cccc(NC(C)=O)c3)c2n1`
86 % of control

Please look up its T/C: `CC1(C)CCSC(/C=C/c2ccccc2)=N1`
101 % of control

###

- System: CD2F1 mice, L1210 leukemia ip, survival T/C
- measurement_protocol: NCI In Vivo Anticancer Drug Screen. Data for tumor model L1210 Leukemia (intraperitoneal) in CD2F1 (CDF1) mice
- test_context: endpoint: mean survival time; dose: 100.0 mg/kg/injection; schedule: Q01DX009 (ip); vehicle: saline with Tween-80; higher = longer survival
Inconclusive results and toxic doses are left out.
measured_attribute: T/C

Worked examples, 4 compounds total:
O=C(SCc1ccccc1)c1cccnc1 | 92 % of control
NC(=O)C#CC(N)=O | 95 % of control
CC1(C)C/C(=C\c2cc(O)ccc2[N+](=O)[O-])C(=O)c2ccccc21 | 97 % of control
COC(=O)C1(C)CCCC2(C)C1CCC13OC1C(C(C)C)=CCC23 (stereo unspecified) | 104 % of control

Request - read-out T/C | tested on CD2F1 mice, L1210 leukemia ip, survival T/C | compound `Fc1cc(F)c(F)c(-c2c(F)c(F)cc(F)c2F)c1F`
103 % of control

Request - read-out T/C | tested on CD2F1 mice, L1210 leukemia ip, survival T/C | compound `COc1cc(OC)c(NC(=O)OCCOc2cc(C)c(Cl)c(C)c2)cc1Cl`
88 % of control

###

- System: CD2F1 mice, L1210 leukemia ip, survival T/C
- measurement_protocol: NCI In Vivo Anticancer Drug Screen. Data for tumor model L1210 Leukemia (intraperitoneal) in CD2F1 (CDF1) mice
- test_context: endpoint: mean survival time; dose: 400.0 mg/kg/injection; schedule: Q01DX001 (ip); vehicle: saline; higher = longer survival
Inconclusive results and toxic doses are left out.
T/C values, listed per item

Worked examples, 5 compounds total:
COc1cc2c(cc1OC)C(Cc1ccc([N+](=O)[O-])cc1)=NCC2 | 102 % of control
COc1ccc(C(O)(CC(=O)O)c2ccc(OC)cc2)cc1 | 97 % of control
COc1ccc2c(c1)C1(C)CCCC(C#N)C1CC2 (stereo not drawn) | 94 % of control
CC(=O)O.CC(=O)O.O.[Fe] | 100 % of control
Cc1cccc(C)c1N1C(N)=NC(N)=NC1(C)C | 93 % of control

Please look up its T/C: `Cc1cc(C)c(S(=O)(=O)c2ccc(F)cc2)c(C)c1`
100 % of control

Please look up its T/C: `O=Cc1cc(C(=O)O)ccc1O`
94 % of control

Please look up its T/C: `CCCCCc1ccc(C#N)cc1`
93 % of control
